Entry source: paper PMC3074162

targetUnderTest: T1, ParB 65-139 (RHH domain) (Leifsonia xyli subsp. cynodontis …, UniProt Q6EEF9 65-139)
T1 sequence: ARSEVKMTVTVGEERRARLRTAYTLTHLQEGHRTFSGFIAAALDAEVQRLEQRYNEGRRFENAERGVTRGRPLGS
protocolNotes: ITC
quantity: Kd (nM)
// units = nM; emit number, no label

binder: R9-18 (dsDNA) DNA 1: GGAATTGTTTGCTACGGT DNA 2: ACCGTAGCAAACAATTCC
quantity: Kd
number: 11
//
binder: R3-18 (dsDNA) DNA 1: GGAATAGGTGGAAAAGCC DNA 2: GGCTTTTCCACCTATTCC
quantity: Kd
number: 31

I have this binder here, R4-18 (dsDNA) DNA 1: GGAAAAGCCAGAAACAGT DNA 2: ACTGTTTCTGGCTTTTCC , and I need its recorded Kd.
87
